# System: Plasmodium falciparum
# procedure.details: GSK_TCMDC: Inhibition of Plasmodium falciparum 3D7 in whole red blood cells, using parasite LDH activity as an index of growth. Test compounds present at 2uM
# Assay type: functional
readout: Inhibition (%)
Report the figure in % without appending any unit label.

Some solved entries appear below for comparison.
[[record]]
molecule = "O=C(/C=C/c1ccc(Cl)c(Cl)c1)NCCCCCN1CCCC(c2c[nH]c3ccccc23)C1 (stereo not drawn)"
readout = "Inhibition"
reported = 99

[[record]]
molecule = "COc1ccc(OC)c2c1CC1NCC2c2c(OC)ccc(OC)c21.Cl (stereo not drawn)"
readout = "Inhibition"
reported = 99


Record request: Inhibition value, item COc1ccc(CN(C)CCCOc2ccc(NC(=O)c3cccc4c(=O)c5cccc(F)c5[nH]c34)cc2)cc1OC
100

Now consider Cl.c1ccc2c(Nc3ccc(Cc4ccc(Nc5c6ccccc6nc6ccccc56)cc4)cc3)c3ccccc3nc2c1 and answer again.
100

Cool, now COc1ccccc1C(=O)N1CCN(Cc2cccs2)CC1
96

Now consider COc1cccc(CNc2noc(-c3c(-c4ccccc4)noc3C)n2)c1OC .
97

Queued: COC(=O)c1ccc(OCC(C)NCC(O)c2cccc(C(F)(F)F)c2)cc1.O=C(O)/C=C/C(=O)O (stereo not drawn)
94

For Br.CC(C)(C)c1ccccc1OCCCON1C(=N)N=C(N)NC1(C)C then?
95

Lookup CCN(CCCN1CCCCC1)c1cc(C)nc(Nc2cccc(C(F)(F)F)c2)n1.O=C(O)C(F)(F)F
100

// query: O=C(O)C(F)(F)F.O=C1CCCN1CCCNCc1cccc(-c2ccc(-c3nc4ccccc4[nH]3)s2)c1
97

====

# Tested on: Plasmodium falciparum
# procedure.details: GSK_TCMDC: Inhibition of Plasmodium falciparum Dd2 in whole red blood cells, using parasite LDH activity as an index of growth. Test compounds present at 2uM
# Type: functional
readout: Inhibition (%)
Just the number in %, nothing appended.

Worked cases, answers included:
[[record]]
compound = "Cc1cccc2nc(-c3ccc(-c4cccc(NC(=O)c5cnn6cccnc56)c4)cc3)[nH]c12"
reported = 29

[[record]]
compound = "CCN(CC)CCCNC(=O)/C(=C/C=C/c1cc2cc(Cl)c(Cl)cc2[nH]1)OC.Cl"
reported = 21

[[record]]
compound = "CCCN(CCC)CCCNc1ccc(C(=O)Nc2ccc(C(C)C)cc2)cc1[N+](=O)[O-]"
reported = 38


Which Inhibition value belongs to O=C(c1cccs1)N1N=C(c2cccs2)CC1c1cccc([N+](=O)[O-])c1 (stereo not drawn) ?
27

# iterate: COc1ccc(Cn2cncc2CN(CCC(C)C)C(=O)c2ccc(Cl)nc2Cl)cc1.O=C(O)C(F)(F)F
61

Please give the result for N#Cc1cccc(Nc2nccc(NCC(O)c3cccc(C(F)(F)F)c3)n2)c1 (stereo not drawn) too.
84

Would you mind doing CNC(=N)c1ccc(NC(=O)c2ccc(C(=O)Nc3ccc(C(=N)NC)cc3)cc2)cc1.Cl as well?
91

Also N#Cc1ccc(-c2ccc(C(=O)NCCCCN3CCC(c4cc(Br)c5c(c4O)CCCC5)CC3)cc2)cc1 , if possible.
50

Try the compound Cl.O=C(C=Cc1cccs1)N(CCCn1ccnc1)c1nc2ccc(F)cc2s1
28

Request: Cc1ccc(NC(=O)c2ccc3ncccc3c2)cc1OC1CCN(C(C)C)C1.O=C(O)C(F)(F)F (stereo not drawn)
37

Here is the next compound: COc1ccc2nc(-c3cc(-c4ccc(NC(C)=O)cc4)cnc3N)[nH]c2c1
73

Next compound up: CCCCN1CCCN(Cc2cccc(NC(=O)c3ccc(-c4ccccc4)cc3)c2)CC1.O=C(O)C(F)(F)F
8

What do you have for COc1c(C)cc(I)cc1CNCCCNc1cc(=O)c2ccccc2[nH]1 ?
0

====

Item-by-item account of Inhibition
# System: Plasmodium falciparum
# procedure.details: GSK_TCMDC: Inhibition of Plasmodium falciparum 3D7 in whole red blood cells, using parasite LDH activity as an index of growth. Test compounds present at 2uM
# Type: functional

[[record]]
compound = "CC(C)NCc1ccc(-c2ccc(NS(=O)(=O)c3cccc4cccnc34)cc2)cc1.O=C(O)C(F)(F)F"
assay_target = "Plasmodium falciparum"
readout = "Inhibition"
reported = "90%"

[[record]]
compound = "CCCC(=O)Nc1ccc(OCCCCN(CC(C)(C)C)c2ccc(C#N)c(C(F)(F)F)c2)cc1"
assay_target = "Plasmodium falciparum"
readout = "Inhibition"
reported = "83%"

[[record]]
compound = "Cc1ccc(N2C(N)=NC(N)=NC2c2ccccc2)cc1.Cl (stereo unspecified)"
assay_target = "Plasmodium falciparum"
readout = "Inhibition"
reported = "94%"

[[record]]
compound = "O=C(Nc1ccc(Cn2nc(Cl)c(N3CCCNCC3)cc2=O)cc1)Nc1ccc(-c2ccccc2)cc1.O=C(O)C(F)(F)F"
assay_target = "Plasmodium falciparum"
readout = "Inhibition"
reported = "87%"

[[record]]
compound = "Fc1cccc(C=NN=c2cc[nH]c3ccccc23)c1"
assay_target = "Plasmodium falciparum"
readout = "Inhibition"
reported = "100%"

[[record]]
compound = "CS(=O)(=O)c1ccc(CNCc2ccc(-c3ccc(-c4nc5cc(C(F)(F)F)ccc5[nH]4)s3)cc2)cc1.O=C(O)C(F)(F)F"
assay_target = "Plasmodium falciparum"
readout = "Inhibition"
reported = "100%"

[[record]]
compound = "CCCNCc1ccc(-c2ccc(CN(CCOC)C(=O)/C=C/c3ccccc3C)cc2)nc1.O=C(O)C(F)(F)F"
assay_target = "Plasmodium falciparum"
readout = "Inhibition"
reported = "95%"

[[record]]
compound = "O=C(CSc1nc2ccc([N+](=O)[O-])cc2s1)Nc1ccccc1-c1ccccc1"
assay_target = "Plasmodium falciparum"
readout = "Inhibition"
reported = "80%"

[[record]]
compound = "Br.N=c1sc2ccccc2n1CC(O)c1ccc(Cl)c(Cl)c1 (stereo unspecified)"
assay_target = "Plasmodium falciparum"
readout = "Inhibition"
reported = "99%"

[[record]]
compound = "O=C(N[C@H](CC1CCCCC1)C(=O)NC1CCCc2ccccc21)c1ccc(O)c(-c2cccc([N+](=O)[O-])c2)c1 (stereo partly specified)"
assay_target = "Plasmodium falciparum"
readout = "Inhibition"
reported = "99%"


So what's the measured Inhibition for this one? COc1cc2nc(N3CCC(CNC(=O)c4ccc(-c5ccc(C(=O)N(C)C)cc5OCCN(C)C)cc4)CC3)nc(N)c2cc1OC
95%

Same read-out for COc1ccc(NC(=O)NC2CCN(c3ccnc4cc(Cl)ccc34)C2)cc1.O=C(O)C(F)(F)F (stereo unspecified) ?
100%

====

# Tested on: HepG2
# procedure.details: GSK_TCMDC: Percent inhibition of human HepG2 cell line. Test compounds present at 10uM.
# Format: functional
Would you mind labelling by Inhibition? At or over 10% is yes (1), under is no (0).

Solved cases below.
[[record]]
molecule = "O=C(COc1ccccc1Cl)N1CCc2cc3nccc(N4CCN5CCC[C@H]5C4)c3cc21"
group_label = "no (0)"

[[record]]
molecule = "COc1ccc2c(=NN=Cc3ccncc3)cc(C)[nH]c2c1"
group_label = "no (0)"

[[record]]
molecule = "CCCCC1(NC(=O)[C@@H](Nc2ccc(C#N)c3ccccc23)C2CCCCC2)CCCCC1.O=C(O)C(F)(F)F"
group_label = "no (0)"

[[record]]
molecule = "Nc1nccc2ccc(-c3ccc4nccn4c3)cc12.O=C(O)C(F)(F)F"
group_label = "yes (1)"

[[record]]
molecule = "CN/C(=N\\O)NCCN(C)C.Cl"
group_label = "no (0)"

[[record]]
molecule = "Cc1ccc(NC(=O)NC2CCN(CCCCCNC(=O)/C=C/c3ccc(Cl)c(Cl)c3)CC2)cc1"
group_label = "yes (1)"

[[record]]
molecule = "O=C(Cn1c(CCc2cccc(F)c2F)cc(=O)c2ccccc21)N(Cc1ccc(-c2ccc(C(F)(F)F)cc2)cc1)C1CCN(CCO)CC1.O=C(O)C(O)C(O)C(=O)O"
group_label = "yes (1)"

[[record]]
molecule = "COc1ccc(C(C(=O)NC2CCN(C[C@H](O)c3ccnc4ccc(OC)cc34)CC2)N2CCN(c3ccc([N+](=O)[O-])cc3)CC2)cc1 (stereo not given in full)"
group_label = "yes (1)"


We now examine a further molecule.
Check the entry O=C(N[C@H]1CCN(CCc2ccc(O[C@H]3CCNC3)cc2)C1)c1ccc(Cl)c(Cl)c1.O=C(O)C(F)(F)F : does Inhibition equal or exceed 10%?
yes (1)

====

# Test system: HepG2
# procedure.details: GSK_TCMDC: Percent inhibition of human HepG2 cell line. Test compounds present at 10uM.
# Format: functional
readout: Inhibition
The reply should read as a number followed by its unit.

As a guide, the following entries are already answered.
[[record]]
molecule = "O=C(O)C(F)(F)F.O=[N+]([O-])c1cccc(CNCC2CCN(Cc3ccc(O)cc3)CC2)c1"
reported = "8%"

[[record]]
molecule = "COc1cccc2cc(C(=O)N[C@@H](CC(C)C)C(=O)NC3CC[C@@H](C)N(C(=O)Nc4ccncc4)CC3=O)oc12 (stereo partly drawn)"
reported = "7%"


Please examine the following record next.
Quick one: Inhibition of CCCCCCCCNc1c2ccc(Cl)cc2nc2ccc(OC)cc12.Cl ?
11%
